experiment: Human liver microsome stability; type: in vitro ADME; conditions: human liver microsomes, pH 7.4
attribute measured: microsomal CLint at 0.99 µM (µL/min/mg)
The answer is to be given in µL/min/mg; state only the numeric part.

Solved cases (3 shown):
- compound: "CCS(=O)(=O)Nc1cccc(Cc2cc(C(=O)NC3CC3)c(Nc3ccc(I)cc3F)c(F)c2F)c1F [Compound D-8]"
  microsomal CLint at 0.99 µM, µL/min/mg: 20
- compound: "CCS(=O)(=O)Nc1nccc(Cn2cc(C(=O)NOC)c(Nc3ccc(I)cc3F)c(C)c2=O)c1F [Compound P-5]"
  microsomal CLint at 0.99 µM, µL/min/mg: 2
- compound: "CONC(=O)c1cc(Cc2cccc(NS(C)(=O)=O)c2F)c(F)c(F)c1Nc1ccc(I)cc1F [Compound E-26]"
  microsomal CLint at 0.99 µM, µL/min/mg: 13

Field: next compound
compound CCNS(=O)(=O)Nc1cccc(Cc2cc(C(=O)NC3CC3)c(Nc3ccc(I)cc3F)n(C)c2=O)c1F [Compound K-13] , microsomal CLint at 0.99 µM observed: 321
